Biological target: T1, GlxR (Cg-GlxR) (Corynebacterium glutamicum, UniProt Q79VI7 1-227)
T1 sequence: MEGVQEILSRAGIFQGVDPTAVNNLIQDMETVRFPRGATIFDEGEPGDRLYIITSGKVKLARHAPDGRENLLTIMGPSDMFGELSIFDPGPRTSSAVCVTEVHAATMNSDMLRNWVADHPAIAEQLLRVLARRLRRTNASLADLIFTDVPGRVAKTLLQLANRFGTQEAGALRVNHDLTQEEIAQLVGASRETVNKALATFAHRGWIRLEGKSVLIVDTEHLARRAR
Test: fluorescence anisotropy; 1.5 mM cAMP; 100 mM KH2PO4 pH 7.8, 200 mM KCl, 1 mM 1-thioglycerol, 0 or 1.5 mM cAMP, 5 nM labelled DNA; temperature not stated
Details: protein: recombinant; tags: His6 (N-terminal, pET16b); chain copies: 2; label: 5'-FITC on strand 1; blunt
assay metric: Kd (µM)
Numeric only. Scale: µM

Which Kd value is on record for FITC-labelled 26-mer duplex (dsDNA) DNA 1: ATTAATGTGAGTTAGCTCACTCATTA DNA 2: TAATGAGTGAGCTAACTCACATTAAT ? 0.087
